All values here come from patent US4983622A.

- targetOrTestSystem: ^3 H-serotonin (^3 H-5HT) receptor binding, rat cerebral cortex membranes
- protocol: Receptor binding, inhibition of specific ^3 H-5HT (tritiated serotonin) binding
- measurementParameters: 15 min at 37°, pH 7.4, 2-3 nM ^3 H-serotonin, read-out: ^3 H-Ligand-IC50, ^3 H-5HT
observedProperty: IC50 (nM)
Provide only the numeric value, understood in nM.

compound: COc1ccc2[nH]cc3c2c1CC(N(C)C)C3 (racemic)
unitText: nM
numericReadout: 70

Moving on to another compound below.
# query: IC50 of entry CCCN(CCC)C1Cc2c[nH]c3ccc(OC)c(c23)C1 (racemic)
50
